Biological target: UniProt Q99640
Experiment: Test for binding to ATP binding site of MYT1 (Kinase Tracer 178 / Eu-Anti-GST antibody TR-FRET)
Conditions: ATP binding site of MYT1, 30 minutes at room temperature
pIC50: −log10 of the molar value.
Tick MET if pIC50 is 8 or greater. Tick NOT MET if pIC50 is less than 8.

Does the molecule Nc1c(-c2ccc(Cl)c3[nH]ncc23)c2cc(OCCC(F)F)c(Cl)cc2[nH]c1=O have recorded pIC50 that is 8 or more?
MET

Please tell me: is the molecule Nc1c(-c2ccc(Cl)c3[nH]ncc23)c2cc(OCC3CC3)c(Cl)cc2[nH]c1=O at or over 8 in terms of pIC50?
NOT MET

Please indicate if the recorded pIC50 for Nc1c(-c2ccc(Cl)c3[nH]ncc23)c2cc(OCCCF)c(F)cc2[nH]c1=O meets or exceeds 8.
MET

Form field: pIC50 at least 8? Entry: Nc1c(-c2ccc(F)c3[nH]ncc23)c2cc(NS(=O)(=O)C3CC3)c3ncccc3c2[nH]c1=O
MET

Is pIC50 for CC(C)(C)OC(=O)N1CCC(c2cc3c(-c4ccc(F)c5[nH]ncc45)c(N)c(=O)[nH]c3c3cccnc23)CC1 at or above 8?
NOT MET

Reported pIC50 at or above 8? Nc1c(-c2ccc(F)c3[nH]ncc23)c2cc(C3CC3)c3ncccc3c2[nH]c1=O
MET

# bool: pIC50 of Nc1c(-c2ccc(F)c3[nH]ncc23)c2cc(O[C@H]3CCOC3)c3ncccc3c2[nH]c1=O >= 8
MET

Is the recorded value of pIC50 equal to or greater than 8 for this molecule? Nc1c(-c2ccc(F)c3[nH]ncc23)c2cc(Br)c3ncccc3c2[nH]c1=O
MET

Kindly determine if pIC50 recorded for C=Cc1cc2c(-c3ccc(F)c4[nH]ncc34)c(N)c(=O)[nH]c2c2cccnc12 is above or exactly 8.
MET

Kindly determine if pIC50 recorded for Nc1c(-c2cc(F)cc3[nH]ncc23)c2cc(Cl)ccc2[nH]c1=O is above or exactly 8.
NOT MET

----------
Molecular target: MYT1 protein (Homo sapiens (Human), UniProt Q99640)
Sequence (Q99640 whole entry): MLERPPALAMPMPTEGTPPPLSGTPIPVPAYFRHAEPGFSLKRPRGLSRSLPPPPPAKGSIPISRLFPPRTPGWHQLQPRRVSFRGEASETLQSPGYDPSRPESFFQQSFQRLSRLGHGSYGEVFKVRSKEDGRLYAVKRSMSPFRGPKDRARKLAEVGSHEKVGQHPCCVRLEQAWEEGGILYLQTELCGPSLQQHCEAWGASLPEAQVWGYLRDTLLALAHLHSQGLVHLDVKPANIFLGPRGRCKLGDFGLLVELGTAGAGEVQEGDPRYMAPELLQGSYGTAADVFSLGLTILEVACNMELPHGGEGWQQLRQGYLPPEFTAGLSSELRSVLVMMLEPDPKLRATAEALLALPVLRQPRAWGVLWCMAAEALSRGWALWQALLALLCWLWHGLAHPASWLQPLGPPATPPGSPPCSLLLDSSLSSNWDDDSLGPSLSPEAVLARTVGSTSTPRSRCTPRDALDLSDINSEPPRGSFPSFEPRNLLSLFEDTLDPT
Assay: Test for binding to ATP binding site of MYT1 (Kinase Tracer 178 / Eu-Anti-GST antibody TR-FRET)
Details: ATP binding site of MYT1, 30 minutes at room temperature
Could you please report measured IC50 for the items listed next?
Write the answer as a number in nM, unit excluded.

Indicate its recorded IC50; the molecule in question is CO[C@H]1C[C@@H](Oc2cc3c(-c4ccc(F)c5[nH]ncc45)c(N)c(=O)[nH]c3c3cccnc23)C1 [Compound C29]
3.3

Quickly give me recorded IC50 for CC(C)CCOc1cc2c(-c3ccc(F)c4[nH]ncc34)c(N)c(=O)[nH]c2c2cccnc12 [Compound C10]
2.3

Output measured IC50 for this item: CC(C)N1CCC(c2cc3c(-c4ccc(F)c5[nH]ncc45)c(N)c(=O)[nH]c3c3cccnc23)CC1.O=CO [Compound C136, formate]
3.4

State, in one line, measured IC50 of Nc1c(-c2cc(F)c(F)c3[nH]ncc23)c2cc(OC3CCC3)c3ncccc3c2[nH]c1=O [Compound C206]
4.1

----------
So I've got a bunch of molecules here, and I need their pIC50 values.
Target: MYT1 protein (Homo sapiens (Human))
Test: Test for binding to ATP binding site of MYT1 (Kinase Tracer 178 / Eu-Anti-GST antibody TR-FRET)
Details: ATP binding site of MYT1, 30 minutes at room temperature
// returns pIC50 (minus log10 of molar concentration), number only

Look up pIC50 of Nc1c(-c2cccc3[nH]ncc23)c2ccc3ncccc3c2[nH]c1=O and report it.
8.17

Tell me pIC50 reported for CCOc1cc2c(-c3cc(F)c(F)c4[nH]ncc34)c(N)c(=O)[nH]c2c2cccnc12
8.62

Note pIC50 for the molecule shown: Cc1cc2c(-c3ccc(F)c4[nH]ncc34)c(N)c(=O)[nH]c2c2ccccc12
8.14

Item CC(=O)c1ccc2[nH]c(=O)c(N)c(-c3ccc(Cl)c4[nH]ncc34)c2c1 : provide pIC50
8.12

Indicate the recorded pIC50 value for this molecule: Cc1c(F)c2c(-c3cc(F)c(F)c4[nH]ncc34)c(N)c(=O)[nH]c2c2cccnc12
8.68

Specify reported pIC50 for the molecule shown: COC1(COc2cc3c(-c4ccc(F)c5[nH]ncc45)c(N)c(=O)[nH]c3c3cccnc23)CC1
8.38

Give reported pIC50 value for Cc1c(C)c2c(-c3cc(F)c(F)c4[nH]ncc34)c(N)c(=O)[nH]c2c2cccnc12
8.47

Using known records, supply pIC50 for CN1CCN(c2cc3c(-c4ccc(F)c5[nH]ncc45)c(N)c(=O)[nH]c3c3nccnc23)CC1
8.60

----------
So I've got a bunch of compounds here, and I need their pIC50 values.
Molecular target: MYT1 protein (Homo sapiens (Human), UniProt Q99640)
Assay: Test for binding to ATP binding site of MYT1 (Kinase Tracer 178 / Eu-Anti-GST antibody TR-FRET)
Conditions: ATP binding site of MYT1, 30 minutes at room temperature
Bear in mind: pIC50 is minus log10 of a mol/L concentration; give just that figure.

Using the record for CN1CCN(c2cc3c(-c4cc(F)c(F)c5[nH]ncc45)c(N)c(=O)[nH]c3c3cccnc23)CC1 [Compound C209] , state its measured pIC50.
8.82

Consider the compound Nc1c(-c2ccc(F)c3[nH]ncc23)c2cc(OC3CC4(COC4)C3)c3ncccc3c2[nH]c1=O [Compound C41] . State its measured pIC50.
8.21

Specify measured pIC50 for C[C@@H](F)COc1cc2c(-c3ccc(F)c4[nH]ncc34)c(N)c(=O)[nH]c2c2cccnc12 [Compound C61] .
8.77

Name the recorded pIC50 of the compound listed here: Nc1c(-c2ccc(F)c3[nH]ncc23)c2cc(OC3CC(C(F)F)C3)c3ncccc3c2[nH]c1=O (stereo not drawn) [Compound C58]
8.82

For Nc1c(-c2cc(F)c(F)c3[nH]ncc23)c2cc(C3CCC3)c3ncccc3c2[nH]c1=O [Compound C201] , write its pIC50.
8.24

Entry Nc1c(-c2ccc(F)c3[nH]ncc23)c2cc([C@H]3CC[C@H](O)CC3)c3ncccc3c2[nH]c1=O [Compound C140] needs its pIC50 filled in; supply it.
8.77

Provide pIC50 value for the following compound: O=c1[nH]c2ccccc2c(-c2cccc3[nH]ncc23)c1O [Compound E2]
6.08

Report pIC50, nothing else, for this compound: CC(C)Oc1cc2c(-c3ccc(F)c4[nH]ncc34)c(N)c(=O)[nH]c2c2cccnc12 [Compound C13]
8.85

Let me know recorded pIC50 for Nc1c(-c2ccc(F)c3[nH]ncc23)c2ccc3c(Cl)cccc3c2[nH]c1=O [Compound B18] , thanks.
7.64

// fetch pIC50 given entry CC(C)N1CCC(c2cc3c(-c4ccc(F)c5[nH]ncc45)c(N)c(=O)[nH]c3c3ncccc23)CC1 [Compound D23]
8.19

Tell me its pIC50 given CCc1cc(Cl)cc2c(-c3ccc(Cl)c4[nH]ncc34)c(N)c(=O)[nH]c12 [Compound A25] as the entry.
7.35

Identify pIC50 associated with the compound CCc1cc2c(-c3ccc(F)c4[nH]ncc34)c(N)c(=O)[nH]c2c2ccccc12 [Compound B23]
8.08

Using the record for CC1(COc2cc3c(-c4ccc(F)c5[nH]ncc45)c(N)c(=O)[nH]c3c3cccnc23)CC(F)(F)C1 [Compound C52] , state its measured pIC50.
8.59

Return value of pIC50 for input Nc1c(-c2cc(F)c(F)c3[nH]ncc23)c2c(F)c(C3CC3)c3ncccc3c2[nH]c1=O [Compound C220] , no commentary.
8.39

Read off the recorded pIC50 for CCc1cc2c(-c3cc(F)c(F)c4[nH]ncc34)c(N)c(=O)[nH]c2c2cccnc12 [Compound C192]
8.43

----------
Biological target: MYT1 protein (Homo sapiens (Human))
Assay: MYT1 kinase activity inhibition test (ELISA, phosphorylation of Y15 of CDK1)
Assay type: biochemical
Details: phosphorylation level of Y15 of CDK1 protein caused by MYT1 protein, 60 minutes
Rule: IC50 below 0.3 nM gives Condition met, anything at or above gives Condition not met.

State whether 0.3 nM exceeds IC50 recorded for CP(C)(=O)c1cc2c(-c3ccc(F)c4[nH]ncc34)c(N)c(=O)[nH]c2c2ccccc12 .
Condition not met

Say whether its IC50 is strictly beneath 0.3 nM. Entry: Cc1ccc(-c2c(N)c(=O)[nH]c3ccc(Cl)cc23)c2cn[nH]c12
Condition not met

Determine whether this molecule shows IC50 lower than 0.3 nM (ties excluded): Nc1c(-c2ccc(F)c3[nH]ncc23)c2cc(F)c3ncccc3c2[nH]c1=O
Condition met

Consider CC#Cc1cc2c(-c3ccc(F)c4[nH]ncc34)c(N)c(=O)[nH]c2c2cccnc12 . Does its IC50 lie strictly below 0.3 nM?
Condition not met

Regarding COc1cc2c(-c3ccc(F)c4[nH]ncc34)c(N)c(=O)[nH]c2c2cccnc12 , kindly confirm whether its IC50 is beneath 0.3 nM.
Condition met

Field: below-cutoff. Rule: recorded IC50 strictly less than 0.3 nM. Subject: Cc1cc2c(-c3ccc(F)c4[nH]ncc34)c(N)c(=O)[nH]c2c2ccccc12
Condition met
